Please respond with reported PBM binding z-score for every item in the list.
system: RXRa DBDmut IVT, anti-RXR (DBD mutation: RXRa K156A/R161A, NR concentration 90 nM); assay: PBM binding z-score (relative to random genomic background probes); higher = stronger binding; sequences stand for … in GC…GCGATTGACAGCGTAGAATGAAGG
Give the figure by itself; no unit, no explanation.

Which PBM binding z-score value is on record for "TCTCGGATGACACGAAAGGTCAGAGCTCGACATC" ?
1.08

Quick one: "TCTAGTTGGTCACGGAGGTCACACGCGACGGGTA"
1.4

Next: "TCGAGTATGTTACGGGGGCATTCAGGGATGAAGA"
2.11

# iterate: "ACTAGCAGGCCAAGGGTGACTCAAGATTAGTCCG"
-0.454

# iterate: "CCTACTGGGCCACGAAAGGGCATTGATTCAGTGA"
-0.586

Entry to check: "CGTCAAAGTTCAAGGCAACGTAACAGAAAGCAGC"
3.97

###

tested on: VDR homodimer (NR concentration 270 nM); test: PBM binding z-score (relative to random genomic background probes); higher = stronger binding; sequences stand for … in GC…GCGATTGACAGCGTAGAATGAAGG
quantity-kind: PBM binding z-score
Would you mind answering with just the numeric figure?

Give its PBM binding z-score value. Item: "ATGTGTAGGTTACATCCGGGTCATTCAGGCTATG"
3.1

And the next one, "CTATGTAGGTTAAGGGGGTCATTCAGTTTGAAAG" ?
4.98

Can you check "CAAACTAGGTCACAGAGGTCAAAGTTCGTGCGTA" next?
7.28

And "TCTAGTTGGTCGCGGAGGTCACACACGACGGGTA" ?
2.63

And "CACACTAGGTCAAGAGGTCAAAGTCCGCTTCCCG" ?
4.78

Follow-up item: "GATCCAGGGTCAGCTAGAGGCCAGAGTATGGAAA"
0.674

###

tested on: VDR homodimer (NR concentration 270 nM); assay: PBM binding z-score (relative to random genomic background probes); higher = stronger binding; sequences stand for … in GC…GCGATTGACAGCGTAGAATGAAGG
Hi there, I'd appreciate the recorded PBM binding z-score for every entry that follows.
Lab note: jot the number down without any unit.

Can you share its PBM binding z-score? I mean this sequence: "CAGAGTAGGTTACGAGGGGGCATTCAGTGCGAAT"
4.2

Ok, now "CTATGTCGGTTAAGGGGGTCATTCAGTTTGAAAG"
6.54

// next record "CCTACTGGGCCAATGTCATTGATCAGTCAAAGCA"
-0.862

Try the sequence "ATCTAAAGGTCGAAGGTGAGTATACCCACCCGAA"
0.755

// same read-out, input: "CCCACTGGGCCATTCAGAGGTCATTGATCATATG"
3.25

What about "CCATGTAGGTTAAGGGGGTCATTCAGTTTGAAAG" ?
6.01

Next up: "TCGAGAAGGTTACGGGGGCATTCAGGGATGAAGA"
3.33

Cool, now "ACTTGGAGGACAAAGGTCAGAGCTACGCCAGTGA"
1.62

Then "TCGAGTAGGTTACGGGTGCATTCAGGGATGAAGA" ?
2.69

And the next one, "TAGCCTAGGTCATTCAGGGGGCAGTATAGAAAGC" ?
3.36

# repeat for "CCTACTGGGCCATTCAGAGGTCATTGATCATATG"
3.37

Proceed to "CGAACTAGGTCACCGGGACAGTGAAGAGGTTGGA"
0.333

One more sequence: "TCGAGTGGGTTACGGGGGCATTCAGGGATGAAGA"
3.66

Next record, please: "ATCGGAAGGTCGAGGTGAGTATAGAGAAAGGGAA"
0.543

Also, "CAAACTAGGTCACCGGAAGGTCAAAGTTCGCATG" please.
4.52

Repeat with "TCGAGTAGGTTACTGGGGCATTCAGGGATGAAGA"
-0.285

# iterate: "TCGAGTAGGTTACGGGGGAATTCAGGGATGAAGA"
0.477

What about "GATACACGGTCAAGGCCAGAGTACGCGTATTGAT" ?
0.324

What about "AGTCAAAGTTCATCAAGGTAACGTAAGATATGCT" ?
4.97

And for "GATACAGGGTCAACTAGAGGCCAGAGTATGGAAA" ?
2.44

Another: "CTATGTAGGTTAAGGGGGTAATTCAGTTTGAAAG"
1.41

Okay, and "CGTCCAAGGTCAGCAGGTGAGTGAAAGCGACGTG" ?
0.692

Also, "TCTTGTAGGTCAAAGGTTAAGAAAGCCGAAGCCT" please.
0.881

Query "ATATGTAGGTTACGTCCGGGTCATTCAGGCTATG" next
2.91

What do we get for "CTCGAAAGGTCGTGCTCAGGTGAGTATGCCAAAC" ?
0.764

Would you kindly repeat that for "AGTCAAAGTTCATCTTGGTAACGTAAGATATGCT" ?
4.88

These measurements were taken from the supplement of paper PMC6555819.
